These data points were gathered from patent US9637520B2.

Molecular target: CXCR7 (Homo sapiens, UniProt P25106)
Construct: host or cells: CHO (PathHunter CHO-CXCR7 β-arrestin cells)
Sequence (P25106 whole entry): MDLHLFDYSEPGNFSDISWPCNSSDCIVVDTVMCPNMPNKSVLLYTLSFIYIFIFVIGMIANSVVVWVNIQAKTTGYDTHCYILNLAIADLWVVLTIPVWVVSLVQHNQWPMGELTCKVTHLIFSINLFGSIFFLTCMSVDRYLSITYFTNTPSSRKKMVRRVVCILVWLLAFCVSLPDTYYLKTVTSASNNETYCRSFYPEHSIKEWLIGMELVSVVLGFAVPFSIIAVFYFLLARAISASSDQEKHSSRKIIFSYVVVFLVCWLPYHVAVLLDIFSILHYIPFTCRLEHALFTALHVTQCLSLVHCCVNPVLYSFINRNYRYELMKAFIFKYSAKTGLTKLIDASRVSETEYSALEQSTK
Test: CXCR7 β-arrestin recruitment assay (PathHunter CHO-CXCR7, DiscoverX), agonistic assay
Type: cell-based
Conditions: agonistic assay; CHO CXCR7 β-arrestin cells; 90 min at 37° C.; chemiluminescence; read-out: β-Arrestin EC50
Non-standard residues stand in square brackets, D forms with d. Residues, ends and D or L forms follow the SMILES beside them. Ala(pyrazol-1-yl) = N[C@@H](Cn1cccn1)C(=O)O; dPro(cis-4-NH2) = N[C@H]1CN[C@@H](C(=O)O)C1; Oic = O=C(O)[C@@H]1C[C@@H]2CCCC[C@@H]2N1; Morpholine(3S-CO) = O=C(O)[C@@H]1COCCN1; Pro(4S-NH2) = N[C@@H]1CN[C@H](C(=O)O)C1; Pro(3S-OH) = O=C(O)[C@H]1NCC[C@@H]1O; hArg = N=C(N)NCCCC[C@H](N)C(=O)O; Tic = O=C(O)[C@@H]1Cc2ccccc2CN1
Overview of recorded pEC50 for various compounds
The meaning of pEC50 here: minus log10 of the concentration in molar units.

Solved entries (count: 4):
compound | reportedMeasurement
CC[C@H](C)[C@@H]1NC(=O)[C@@H]2[C@@H](O)CCN2C(=O)[C@H]2CCCN2C(=O)[C@H](Cc2c[nH]c3ccccc23)NC(=O)[C@H](CCCNC(=N)N)NC(=O)[C@@H](CCCNC(=N)N)NC1=O [Ex. 21] (cyclo(I[dR]RW[dP][Pro(3S-OH)])) | 6.91
N=C(N)NCCC[C@@H]1NC(=O)[C@H](Cc2c[nH]c3ccccc23)NC(=O)[C@@H](Cc2ccccc2)NC(=O)[C@H](Cn2cccn2)NC(=O)[C@@H]2Cc3ccccc3CN2C(=O)[C@H]2C[C@@H](N)CN2C1=O [Ex. 74] (cyclo(R[dPro(cis-4-NH2)][Tic][Ala(pyrazol-1-yl)][dF]W)) | 7.52
N=C(N)NCCCC[C@@H]1NC(=O)[C@@H]2Cc3ccccc3CN2C(=O)[C@H]2C[C@@H](N)CN2C(=O)[C@H](CCCNC(=N)N)NC(=O)[C@H](Cc2c[nH]c3ccccc23)NC(=O)[C@@H](Cc2ccccc2)NC1=O [compound 35] (cyclo(R[dPro(cis-4-NH2)][Tic][hArg][dF]W)) | 7.91
N=C(N)NCCC[C@@H]1NC(=O)[C@@H]2Cc3ccccc3CN2C(=O)[C@H]2C[C@@H](N)CN2C(=O)[C@H](CCCNC(=N)N)NC(=O)[C@H](Cc2c[nH]c3ccccc23)NC(=O)[C@@H](Cc2ccccc2)NC1=O [compound 33] (cyclo(R[dF]WR[dPro(cis-4-NH2)][Tic])) | 6.61

Param readout= pEC50; system= CXCR7 (Homo sapiens, UniProt P25106); entry= N=C(N)NCCC[C@@H]1NC(=O)[C@H](Cc2c[nH]c3ccccc23)NC(=O)[C@@H](Cc2ccccc2)NC(=O)[C@H](Cc2c[nH]c3ccccc23)NC(=O)[C@@H]2C[C@@H]3CCCC[C@@H]3N2C(=O)[C@H]2C[C@@H](N)CN2C1=O [Ex. 41] (cyclo([Oic]W[dF]WR[dPro(cis-4-NH2)])) ; returns value.
7.68

And the next one, N=C(N)NCCC[C@@H]1NC(=O)[C@H](Cc2c[nH]c3ccccc23)NC(=O)[C@@H](Cc2ccccc2)NC(=O)[C@H](Cc2c[nH]c3ccccc23)NC(=O)[C@@H]2C[C@H](N)CN2C(=O)[C@H]2CCCN2C1=O [compound 44] (cyclo(R[dP][Pro(4S-NH2)]W[dF]W)) ?
7.43

Another: N=C(N)NCCC[C@@H]1NC(=O)[C@H](Cc2c[nH]c3ccccc23)NC(=O)[C@@H](Cc2ccccc2)NC(=O)[C@H](Cc2c[nH]c3ccccc23)NC(=O)[C@@H]2COCCN2C(=O)[C@H]2CCCN2C1=O [compound 46, cyclo(-Trp-^DPhe-Trp-Arg-^DPro-Mor-)] (cyclo(R[dP][Morpholine(3S-CO)]W[dF]W))
6.88

----------
EC50 reference
Target: CXCR7 (Homo sapiens)
Construct: host or cells: CHO (PathHunter CHO-CXCR7 β-arrestin cells)
Assay: CXCR7 β-arrestin recruitment assay (PathHunter CHO-CXCR7, DiscoverX), agonistic assay
Type: cell-based
Settings: agonistic assay; CHO CXCR7 β-arrestin cells; 90 min at 37° C.; chemiluminescence; read-out: β-Arrestin EC50
Non-standard residues stand in square brackets, D forms with d. Residues, ends and D or L forms follow the SMILES beside them. Arg(Nω,Nω'-propylene) = N[C@@H](CCCNC1=NCCCN1)C(=O)O; dPro(cis-4-NH2) = N[C@H]1CN[C@@H](C(=O)O)C1; dPro(4S-NH2) = N[C@@H]1CN[C@@H](C(=O)O)C1; Tic = O=C(O)[C@@H]1Cc2ccccc2CN1; hSer = N[C@@H](CCO)C(=O)O
Just the number in µM, nothing appended.

Solved entries:
molecule | EC50, µM
N=C(N)NCCC[C@@H]1NC(=O)[C@H](Cc2c[nH]c3ccccc23)NC(=O)[C@@H](Cc2ccccc2)NC(=O)[C@H](Cc2c[nH]c3ccccc23)NC(=O)[C@@H]2Cc3ccccc3CN2C(=O)[C@H]2C[C@H](N)CN2C1=O [Ex. 25] (cyclo(R[dPro(4S-NH2)][Tic]W[dF]W)) | 0.0175
CC[C@H](C)[C@@H]1NC(=O)[C@H](CCO)NC(=O)[C@H]2CCCN2C(=O)[C@H](Cc2c[nH]c3ccccc23)NC(=O)[C@H](CCCNC(=N)N)NC(=O)[C@@H](CCCNC(=N)N)NC1=O [Ex. 8, cyclo(-Ile-^DArg-Arg-Trp-^DPro-hSer-)] (cyclo(I[dR]RW[dP][hSer])) | 0.347

Hi! What's the reported EC50 for N[C@@H]1C[C@@H]2C(=O)N3Cc4ccccc4C[C@H]3C(=O)N[C@@H](Cc3c[nH]c4ccccc34)C(=O)N[C@H](Cc3ccccc3)C(=O)N[C@@H](Cc3c[nH]c4ccccc34)C(=O)N[C@@H](CCCNC3=NCCCN3)C(=O)N2C1 [compound 80] (cyclo([Tic]W[dF]W[Arg(Nω,Nω'-propylene)][dPro(cis-4-NH2)])) on CXCR7 (Homo sapiens)?
0.0334

----------
Attribute: log10 EC50
Target: CXCR7 (Homo sapiens, UniProt P25106)
Construct: host or cells: CHO (PathHunter CHO-CXCR7 β-arrestin cells)
Experiment: CXCR7 β-arrestin recruitment assay (PathHunter CHO-CXCR7, DiscoverX), agonistic assay
Type: cell-based
Details: agonistic assay; CHO CXCR7 β-arrestin cells; 90 min at 37° C.; chemiluminescence; read-out: β-Arrestin EC50
Protocol: Lyophilized peptides were weighed on a Microbalance (Mettler MX5) and dissolved in DMSO to a final concentration of 10 mM unless otherwise stated. Stock solutions were kept at +4° C., and protected from light. 2.2 CXCR7 β-Arrestin Recruitment Assay The PathHunter CHO-CXCR7 (DiscoverX) assay was performed according to the manufacturer's protocol. […]
Starred links: 1 amine or outer side, 2 acyl side, 3 side chain; linkers in the order of their positions; H or OH if unused. Non-standard residues stand in square brackets, D forms with d. Residues, ends and D or L forms follow the SMILES beside them. Arg(Nω,Nω'-propylene) = N[C@@H](CCCNC1=NCCCN1)C(=O)O; Phe(4-CF3) = N[C@@H](Cc1ccc(C(F)(F)F)cc1)C(=O)O; dPro(cis-4-NH2) = N[C@H]1CN[C@@H](C(=O)O)C1; Pro(cis-4-F) = O=C(O)[C@@H]1C[C@H](F)CN1; Pro(3S-OH) = O=C(O)[C@H]1NCC[C@@H]1O; X2 = O=C([C@H](Cn1ncnn1)N[*:1])[*:2]; Tic = O=C(O)[C@@H]1Cc2ccccc2CN1; d3Pal = N[C@H](Cc1cccnc1)C(=O)O; dPip = O=C(O)[C@H]1CCCCN1
Record value = log10 of EC50 given in nM.

Check out these entries, answers already filled in.
compound | testSystem | log10 EC50
N=C(N)NCCC[C@@H]1NC(=O)[C@H](Cc2c[nH]c3ccccc23)NC(=O)[C@@H](Cc2cccnc2)NC(=O)[C@H](Cc2c[nH]c3ccccc23)NC(=O)[C@@H]2Cc3ccccc3CN2C(=O)[C@H]2C[C@@H](N)CN2C1=O [compound 38] (cyclo(R[dPro(cis-4-NH2)][Tic]W[d3Pal]W)) | CXCR7 (Homo sapiens, UniProt P25106) | 0.79
N=C(N)NCCC[C@@H]1NC(=O)[C@H](Cc2c[nH]c3ccccc23)NC(=O)[C@@H](Cc2ccccc2)NC(=O)[C@H](Cc2c[nH]c3ccccc23)NC(=O)[C@@H]2Cc3ccccc3CN2C(=O)[C@H]2C[C@@H](N)CN2C1=O [compound 26] (cyclo(R[dPro(cis-4-NH2)][Tic]W[dF]W)) | CXCR7 (Homo sapiens, UniProt P25106) | 0.79
N=C(N)NCCC[C@@H]1NC(=O)[C@H](Cc2c[nH]c3ccccc23)NC(=O)[C@@H](Cc2ccccc2)NC(=O)[C@H](Cc2c[nH]c3ccccc23)NC(=O)[C@@H]2C[C@H](F)CN2C(=O)[C@H]2CCCN2C1=O [Ex. 43] (cyclo([Pro(cis-4-F)]W[dF]WR[dP])) | CXCR7 (Homo sapiens, UniProt P25106) | 2.08

Name the recorded log10 EC50 for N=C(N)NCCC[C@@H]1NC(=O)[C@H](Cc2c[nH]c3ccccc23)NC(=O)[C@@H](Cc2ccccc2)NC(=O)[C@H](Cn2ncnn2)NC(=O)[C@@H]2Cc3ccccc3CN2C(=O)[C@H]2C[C@@H](N)CN2C1=O [compound 75] (cyclo(R[dPro(cis-4-NH2)][Tic][X2][dF]W)) .
1.45

Same question, CC[C@H](C)[C@@H]1NC(=O)[C@H]([C@@H](C)O)NC(=O)[C@H]2CCCN2C(=O)[C@H](Cc2ccc(C(F)(F)F)cc2)NC(=O)[C@H](CCCNC(=N)N)NC(=O)[C@@H](CCCNC(=N)N)NC1=O [Ex. 72] (cyclo(I[dR]R[Phe(4-CF3)][dP]T)) this time
0.65

Now this one: O=C1N[C@H](Cc2ccccc2)C(=O)N[C@@H](Cc2c[nH]c3ccccc23)C(=O)N[C@@H](CCCNC2=NCCCN2)C(=O)N2CCCC[C@@H]2C(=O)N2CC[C@H](O)[C@H]2C(=O)N[C@H]1Cc1c[nH]c2ccccc12 [Ex. 73] (cyclo(W[dF]W[Arg(Nω,Nω'-propylene)][dPip][Pro(3S-OH)]))
1.15

Another: NCCCC[C@@H]1NC(=O)[C@H](Cc2c[nH]c3ccccc23)NC(=O)[C@@H](Cc2ccccc2)NC(=O)[C@H](Cc2c[nH]c3ccccc23)NC(=O)[C@@H]2Cc3ccccc3CN2C(=O)[C@H]2C[C@@H](N)CN2C1=O [compound 31] (cyclo(K[dPro(cis-4-NH2)][Tic]W[dF]W))
2.14
